- procedure-text: Trypanosoma cruzi growth suppression in host cells – NIH3T3 host cells, beta-gal luminescence, confirmation (AID 2044);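 also: intracellular parasites grown in NIH/3T3 mouse fibroblasts as host cells; luminescent beta-galactosidase reporter signal from transgenic T. cruzi replicating inside host cells; inhibitors lower the luminescence signal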
- Type: functional, cell-based
Activity calls are given as the source filed them.
Below is a list of entries, each paired with its recorded EC50 value.

molecule | value-type | reported-measurement
COc1c(Cl)cc(Cl)cc1C(=O)Nc1ccc(NC(=O)c2cccs2)cc1 | EC50 | 1.95 µM (active)
Cc1ccc(CNc2ccc3c(c2)OCO3)cc1 | EC50 | 1.52 µM (active)
COC(=O)C1=C(c2cc3ccccc3s2)C[C@@H]2CC[C@H]1N2C(=O)NCc1ccc(C(F)(F)F)cc1 | EC50 | 3.12 µM (active)

Now take the following compound into account.
Specify measured EC50 for Clc1ccc(/N=c2\ssnc2Cl)nc1 .
1.45 µM (active)

* * *

- subject-of-test: Peroxisome proliferator-activated receptor gamma/Nuclear receptor coactivator 2 (Homo sapiens)
- Sequence (P37231 whole entry): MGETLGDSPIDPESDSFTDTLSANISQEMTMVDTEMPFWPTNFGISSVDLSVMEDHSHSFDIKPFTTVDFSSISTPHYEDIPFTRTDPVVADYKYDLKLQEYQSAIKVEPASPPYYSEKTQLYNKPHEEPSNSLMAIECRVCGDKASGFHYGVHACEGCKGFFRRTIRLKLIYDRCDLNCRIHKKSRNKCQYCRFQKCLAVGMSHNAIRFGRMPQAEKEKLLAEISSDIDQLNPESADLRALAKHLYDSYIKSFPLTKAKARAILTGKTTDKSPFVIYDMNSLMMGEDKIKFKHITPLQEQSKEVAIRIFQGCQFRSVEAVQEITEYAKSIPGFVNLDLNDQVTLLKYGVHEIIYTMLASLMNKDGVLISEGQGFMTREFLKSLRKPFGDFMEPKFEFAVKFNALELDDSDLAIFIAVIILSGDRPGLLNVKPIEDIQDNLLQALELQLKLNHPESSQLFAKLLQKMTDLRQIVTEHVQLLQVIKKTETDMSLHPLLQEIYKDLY
- Sequence (Q15596 whole entry, further chain): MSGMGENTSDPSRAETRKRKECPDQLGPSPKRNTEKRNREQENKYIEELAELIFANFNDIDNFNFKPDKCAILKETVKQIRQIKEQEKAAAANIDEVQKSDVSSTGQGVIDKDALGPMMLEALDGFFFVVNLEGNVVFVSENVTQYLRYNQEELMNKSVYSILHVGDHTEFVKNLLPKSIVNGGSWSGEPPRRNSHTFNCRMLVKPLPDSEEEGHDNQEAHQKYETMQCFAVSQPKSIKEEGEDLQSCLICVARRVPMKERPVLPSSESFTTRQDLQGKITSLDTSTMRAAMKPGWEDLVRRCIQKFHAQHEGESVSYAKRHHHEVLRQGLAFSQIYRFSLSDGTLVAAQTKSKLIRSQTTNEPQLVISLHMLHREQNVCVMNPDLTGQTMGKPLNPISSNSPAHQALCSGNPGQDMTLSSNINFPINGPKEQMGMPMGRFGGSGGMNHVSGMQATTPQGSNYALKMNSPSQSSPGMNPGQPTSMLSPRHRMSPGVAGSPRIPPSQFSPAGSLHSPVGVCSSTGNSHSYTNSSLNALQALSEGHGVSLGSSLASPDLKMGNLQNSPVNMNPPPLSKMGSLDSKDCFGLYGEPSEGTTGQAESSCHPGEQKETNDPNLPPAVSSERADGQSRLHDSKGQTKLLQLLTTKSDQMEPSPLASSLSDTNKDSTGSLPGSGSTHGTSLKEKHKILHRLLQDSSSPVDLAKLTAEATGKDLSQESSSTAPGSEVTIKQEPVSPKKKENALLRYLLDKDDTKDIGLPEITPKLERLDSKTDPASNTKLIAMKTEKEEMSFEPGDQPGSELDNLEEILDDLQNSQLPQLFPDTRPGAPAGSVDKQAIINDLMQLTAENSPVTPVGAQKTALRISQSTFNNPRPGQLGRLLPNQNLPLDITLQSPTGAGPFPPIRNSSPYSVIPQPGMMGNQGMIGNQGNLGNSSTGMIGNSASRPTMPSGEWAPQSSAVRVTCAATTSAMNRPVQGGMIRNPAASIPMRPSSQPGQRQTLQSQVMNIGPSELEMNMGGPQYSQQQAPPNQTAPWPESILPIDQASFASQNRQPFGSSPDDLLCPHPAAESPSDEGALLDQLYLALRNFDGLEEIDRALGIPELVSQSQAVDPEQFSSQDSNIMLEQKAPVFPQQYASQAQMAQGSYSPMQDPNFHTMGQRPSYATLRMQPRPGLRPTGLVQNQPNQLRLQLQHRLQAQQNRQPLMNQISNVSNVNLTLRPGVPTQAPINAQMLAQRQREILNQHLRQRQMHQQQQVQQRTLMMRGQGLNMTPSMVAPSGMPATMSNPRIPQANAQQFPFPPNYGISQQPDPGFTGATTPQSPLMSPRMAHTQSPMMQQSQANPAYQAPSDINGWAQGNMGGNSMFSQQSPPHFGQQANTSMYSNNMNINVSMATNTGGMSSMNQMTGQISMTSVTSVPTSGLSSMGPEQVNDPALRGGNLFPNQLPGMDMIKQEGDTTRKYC
- procedure-text: TR-FRET dose response biochemical High Throughput Screening assay for agonists of the steroid receptor coactivator 2 (SRC-2) recruitment by the peroxisome proliferator-activated receptor gamma (PPAR gamma): non-selective agonists. [Related pubchem assays: 1297, 1032 ]
- Assay type: functional
Activity calls are given as the source filed them.
Below is a list of entries, each paired with its recorded EC50 value.

molecule | EC50
COc1ccc(-c2nc(-c3cccs3)c(-c3cccs3)[nH]2)cc1O | 4.79 µM (active)
Cc1cccc(Nc2nn3c(=O)c4ccccc4nc3s2)c1 | 21.7 µM (not active)
NC(=O)CSc1oc(-c2cccs2)nc1S(=O)(=O)c1ccccc1 | 10.8 µM (not active)

Now take the following molecule into account.
Specify measured EC50 for O=C(Nc1cccnc1)c1sc(Nc2ccccc2F)nc1-c1ccccc1 .
6.83 µM (active)

* * *

- Tested on: Streptococcus
- procedure-text: GAS UMAA2166 growth inhibition – luminescence, BacTiterGlo, counter-screen for streptokinase expression inhibitor project, dose response (AID 1915);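 also: potency for reduction of bacterial viability or growth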
- Type: functional, organism-based
Calls of active or inactive are those of the source.
Below is a list of entries, each paired with its recorded EC50 value.

compound | EC50
CCC(C)Sc1cccc(-c2nc3ccc(C)cn3c2NCc2ccccc2)c1 (centres undefined) | 10.3 µM (active)

Specify measured EC50 for Oc1ccc(Cl)cc1-c1cc(-c2cccc(Br)c2)[nH]n1 .
6.65 µM (active)

Specify measured EC50 for O=Cc1cc(N=Nc2ccccc2Cl)ccc1O .
6.24 µM (active)

Specify measured EC50 for COc1cc(/C=C2/SC(=S)N(Cc3ccccc3)C2=O)cc(Cl)c1O .
5.86 µM (active)

Specify measured EC50 for CCc1ccccc1OCC(=O)Nc1nc(-c2cccnc2)cs1 .
3.28 µM (active)

Specify measured EC50 for CSc1ccc(/C=C2\CCn3c2nc2cc(C(=O)O)ccc2c3=O)cc1 .
> 150 µM (not active)

Specify measured EC50 for O=C(NC(=S)N1CCCCC1c1cccnc1)c1ccc(F)cc1 (centres undefined) .
> 150 µM (not active)

Specify measured EC50 for CC(C)(C)OC(=O)NCCCC[C@H](NC(=O)c1[nH]cnc1C(=O)Nc1ccc(Cl)cc1)C(=O)OC(C)(C)C .
8.04 µM (active)

Specify measured EC50 for COc1ccc(C(=O)NCC(=O)OCC(=O)N2N=C(c3ccc(Cl)cc3)CC2c2ccco2)cc1OC (centres undefined) .
> 150 µM (not active)
